assay name: NCI Yeast Anticancer Drug Screen. Data for the mec2-1 strain (AID 157)
assay context: S. cerevisiae mec2-1 strain, at 50.0 µM, active compounds read high
Compounds without any hit were thinned out: in the full panel of roughly 79,000, 15% have a hit.
growth inhibition values, listed per item
Supply the numeric figure in %, leaving out any unit text.

Below are worked cases with known answers.
{"molecule": "CC1=NCCc2c1[nH]c1cc(O)ccc21", "readout unit": "%", "growth inhibition": -28.1}
{"molecule": "CC(=O)N(C)C(=O)Oc1cccc2ccccc12", "readout unit": "%", "growth inhibition": 17.4}
{"molecule": "CCN(CC)CC#N", "readout unit": "%", "growth inhibition": -2.75}
{"molecule": "N.N.N.N.N.O=C([O-])C(=O)[O-].[Co+3].[O-][Cl+3]([O-])([O-])O.[O-][Cl+3]([O-])([O-])[O-]", "readout unit": "%", "growth inhibition": 11.8}
{"molecule": "CN(C(=O)COc1ccc([N+](=O)[O-])cc1Cl)c1ccc(S(=O)(=O)F)cc1", "readout unit": "%", "growth inhibition": -1.85}

Q: Param item = `CC(C)OP(=O)(OC(C)C)/C(C#N)=C/c1ccco1` ; retrieve measured growth inhibition.
Ans: -51

Q: Param item = `N#CC1(c2ccccc2)CCN(C2(c3ccccc3)CCCCC2)CC1` ; retrieve measured growth inhibition.
Ans: -30.2

Q: Param item = `N#Cc1ccc([N+](=O)[O-])cc1` ; retrieve measured growth inhibition.
Ans: 9.25

Q: Param item = `O=C1NC(=O)C(O)(C2=C(O)CCC2=O)C(=O)N1` ; retrieve measured growth inhibition.
Ans: -0.3

Q: Param item = `N#C[S-].N#C[S-].[Ni+2].c1ccc([PH+](c2ccccc2)c2ccccc2)cc1.c1ccc([PH+](c2ccccc2)c2ccccc2)cc1` ; retrieve measured growth inhibition.
Ans: 33.7

Q: Param item = `N#CCCSCCC#N` ; retrieve measured growth inhibition.
Ans: 6.55

---

assay name: NCI Yeast Anticancer Drug Screen. Data for the rad50 strain (AID 155);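 note: 0% = growth of vehicle-only cultures of the same strain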
assay context: S. cerevisiae rad50 strain growth inhibition; at 50.0 µM; active compounds read high
The panel holds about 79,000 compounds, 15% with a hit somewhere; the sample as a whole holds those more often.
parameter: growth inhibition (%)
Supply the numeric figure in %, leaving out any unit text.

Below are worked cases with known answers.
{"compound": "CC(C)(O)/C=C/C(=O)[C@](C)(O)[C@H]1[C@H](O)C[C@@]2(C)[C@@H]3CC=C4[C@@H](C[C@H](O)C(=O)C4(C)C)[C@]3(C)C(=O)C[C@]12C", "growth inhibition [%]": 8.3}
{"compound": "O=c1sc2ccccc2n1CC1CS1 (stereo not given)", "growth inhibition [%]": 22.4}
{"compound": "Cc1ccc(-n2c(=S)[nH]c3ccccc3c2=O)cc1", "growth inhibition [%]": -8.7}

Q: Param item = `COc1ccc2c(C3(O)CCNCC3)c[nH]c2c1` ; retrieve measured growth inhibition.
Ans: 0.1

Q: Param item = CC1(C)OC2OCCC(N=[N+]=[N-])C2O1 (stereo not given) ; retrieve measured growth inhibition.
Ans: 0.85

Q: Param item = `[C-]#[O+].[Cl][Ru]([Cl])([Cl])([Cl])[Cl]` ; retrieve measured growth inhibition.
Ans: -7.05

Q: Param item = `Cc1cc(C)c(C#N)c(SSC(Cl)(Cl)Cl)n1` ; retrieve measured growth inhibition.
Ans: 5.75

Q: Param item = `[Cl][Hg][Cl].c1ccc(N=P(c2ccccc2)(c2ccccc2)c2ccccc2)cc1` ; retrieve measured growth inhibition.
Ans: 99.7

Q: Param item = CC(O)CN(CCN(CC(C)O)CC(C)O)CC(C)O.[Cl-].[Zn+2] (stereo not given) ; retrieve measured growth inhibition.
Ans: 14.9

Q: Param item = `CCC1(CCBr)C(=O)NC(=O)NC1=O` ; retrieve measured growth inhibition.
Ans: -33.6

Q: Param item = N.N.NC(CS)C(=O)[O-].NC(CS)C(=O)[O-].[Pt+4] (stereo not given) ; retrieve measured growth inhibition.
Ans: 15

Q: Param item = O=S1(F)=NP(N2CC2)(N2CC2)=NP(N2CC2)(N2CC2)=N1 (stereo not given) ; retrieve measured growth inhibition.
Ans: 22.6

---

assay name: NCI Yeast Anticancer Drug Screen. Data for the sgs1 mgt1 strain (AID 161);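 note: 0% = growth of cultures given vehicle only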
assay context: S. cerevisiae sgs1 mgt1 strain, at 50.0 µM
The panel holds about 79,000 compounds, 15% with a hit somewhere; the sample as a whole holds those more often. Active and inactive are the calls of the source. Rule as the data show it: active = growth inhibition above about 70%; inactive = the rest.
Thanks in advance; please answer with one of these: active, inactive

{"compound": "N#CC1=C(C#N)C(=O)C(Cl)=C(Cl)C1=O", "qualitative label": "inactive"}

Q: I'd appreciate the recorded outcome for CC1NC1(c1ccccc1)n1ccnc1 (stereo unspecified) from this test.
Ans: inactive

Q: I'd appreciate the recorded outcome for `CC1(C)N=C(N)N=C(N)N1c1cccc(CCCCc2ccc(S(=O)(=O)F)c(Cl)c2)c1` from this test.
Ans: active

Q: I'd appreciate the recorded outcome for CCCCCCCCCCC(O)[C@H]1CCC(C2CC[C@H]([C@H](O)CCCCCCCCCCC(O)CC3=CC(C)OC3=O)O2)O1 (stereo partly specified) from this test.
Ans: inactive

Q: I'd appreciate the recorded outcome for `CCC1(C/C=C/Cl)C(=O)NC(=O)NC1=O` from this test.
Ans: inactive

Q: I'd appreciate the recorded outcome for CC(Oc1ccc(-c2ccccc2)cc1)C(=O)O (stereo unspecified) from this test.
Ans: inactive

Q: I'd appreciate the recorded outcome for `N.N.N.N.O=N[O-].O=N[O-].[Cl-].[Co+3]` from this test.
Ans: inactive

Q: I'd appreciate the recorded outcome for `Cn1nnc(-c2nnn(C)n2)n1` from this test.
Ans: inactive

Q: I'd appreciate the recorded outcome for `C[CH2][Sn]([CH2]C)([S]c1nc(O)cc(=O)[nH]1)[S]c1nc(O)cc(=O)[nH]1` from this test.
Ans: inactive

Q: I'd appreciate the recorded outcome for `CCC1(CCNC(=O)CCl)C(=O)NC(=O)NC1=O` from this test.
Ans: inactive

Q: I'd appreciate the recorded outcome for `CC1(C)CC(N2CCCCC2)=CC(=[N+]2CCCCC2)C1` from this test.
Ans: inactive

---

assay name: NCI Yeast Anticancer Drug Screen. Data for the mlh1 rad18 strain (AID 175)
assay context: S. cerevisiae mlh1 rad18 strain growth inhibition; at 50.0 µM; active compounds read high
Compounds without any hit were thinned out: in the full panel of roughly 79,000, 15% have a hit.
parameter: growth inhibition (%)
Supply the numeric figure in %, leaving out any unit text.

Below are worked cases with known answers.
{"compound": "CCCn1cc2c3c(cccc31)[C@H]1C[C@@H](C)CN(C)[C@@H]1C2", "quantitative result": 36.5}
{"compound": "C[CH2][Sn]([CH2]C)([S]c1nc(O)cc(=O)[nH]1)[S]c1nc(O)cc(=O)[nH]1", "quantitative result": 25.1}
{"compound": "CC(C)N=Cc1ccccc1O.CC(C)N=Cc1ccccc1O.[Ni]", "quantitative result": 22.2}
{"compound": "O=NNc1cncc(Cl)n1", "quantitative result": -6.05}
{"compound": "Cc1cccc(Cl)c1OP(=O)(Oc1c(C)cccc1Cl)Oc1c(C)cccc1Cl", "quantitative result": -51.4}

Q: Param item = CCCCCCC(Cn1ccnc1)c1ccc(Br)cc1 (configuration not stated) ; retrieve measured growth inhibition.
Ans: 91.7

Q: Param item = `CN1C(c2cccnc2)=NCC12CCCC2` ; retrieve measured growth inhibition.
Ans: -9.45

Q: Param item = `O=C(Nc1ccccc1)c1ccc([As](c2ccc(C(=O)Nc3ccccc3)cc2)c2ccc(C(=O)Nc3ccccc3)cc2)cc1` ; retrieve measured growth inhibition.
Ans: -33.5

Q: Param item = `Oc1ccc(Cl)cc1Br` ; retrieve measured growth inhibition.
Ans: -0.15

Q: Param item = COP1(=S)OCC2OC(n3cc(C)c(=O)[nH]c3=O)CC2O1 (configuration not stated) ; retrieve measured growth inhibition.
Ans: -9.25

Q: Param item = `Nc1ccc(Sc2ccc(N)cc2)cc1` ; retrieve measured growth inhibition.
Ans: 23.1

Q: Param item = `[Cl][Hg][c]1ccccc1N=Nc1ccccc1` ; retrieve measured growth inhibition.
Ans: 94.5

---

assay name: NCI Yeast Anticancer Drug Screen. Data for the cln2 rad14 strain (AID 165);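 note: 0% = growth equal to vehicle treated cultures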
assay context: S. cerevisiae cln2 rad14 strain, at 50.0 µM, active compounds read high
The panel holds about 79,000 compounds, 15% with a hit somewhere; the sample as a whole holds those more often.
parameter: growth inhibition (%)
Supply the numeric figure in %, leaving out any unit text.

Below are worked cases with known answers.
{"molecule": "Cc1ccc(NC(=O)c2cc3ccccc3cc2O)c(C)c1", "growth inhibition (%)": 8.75}
{"molecule": "C[C@]12CC[C@@H](O)C[C@H]1[C@@H](O)C[C@@H]1[C@@H]2CC[C@]2(C)C(=O)CC[C@@H]12", "growth inhibition (%)": -17.1}

Now look at this one.
Q: Param item = C1C2CC3C1C1CN3C21 (stereo not drawn) ; retrieve measured growth inhibition.
Ans: -28
